Here, each record is paired with measured pEC50 data.
# Test system: Hepatitis C virus
# protocol.description: Antiviral activity against HCV genotype 1b harboring D168A mutant infected in human Huh7 cells incubated for 96 hrs by luciferase assay
# Type: functional, organism-based, Hepacivirus hominis
# applied.conditions: subtype 1b, Huh-7, 96 h
Convention used: pEC50 is expressed as -log10 of the molar concentration.

Answered examples (3):
1) COc1ccc2nc(C)c(O[C@@H]3C[C@H]4C(=O)N[C@]5(C(=O)NS(=O)(=O)C6(C)CC6)C[C@H]5/C=C/CCCCC[C@H](NC(=O)O[C@@H]5CCC[C@H]5F)C(=O)N4C3)nc2c1 = 7.37
2) COc1ccc2nc(O[C@@H]3C[C@H]4C(=O)N[C@]5(C(=O)NS(=O)(=O)C6(C)CC6)C[C@H]5/C=C/CCCCC[C@H](NC(=O)O[C@@H](C)C5CC5)C(=O)N4C3)c(C(F)(F)F)nc2c1 = 7.74
3) COc1ccc2nc(C)c(O[C@@H]3C[C@H]4C(=O)N[C@]5(C(=O)NS(=O)(=O)C6(C)CC6)C[C@H]5/C=C/CCCCC[C@H](NC(=O)OC5(C)CC5)C(=O)N4C3)nc2c1 = 8.46

Consider the molecule CCC1(OC(=O)N[C@H]2CCCCC/C=C/[C@@H]3C[C@@]3(C(=O)NS(=O)(=O)C3(C)CC3)NC(=O)[C@@H]3C[C@@H](Oc4nc5cc(OC)ccc5nc4C)CN3C2=O)CCCC1 and give its measured pEC50. 8.33

Consider the molecule CCC(CC)OC(=O)N[C@H]1CCCCC/C=C/[C@@H]2C[C@@]2(C(=O)NS(=O)(=O)C2(C)CC2)NC(=O)[C@@H]2C[C@@H](Oc3nc4ccc(OC)cc4nc3C(F)(F)F)CN2C1=O and give its measured pEC50. 7.77

Consider the molecule COc1ccc2nc(C)c(O[C@@H]3C[C@H]4C(=O)N[C@]5(C(=O)NS(=O)(=O)C6(C)CC6)C[C@H]5/C=C/CCCCC[C@H](NC(=O)OC5CCCCC5)C(=O)N4C3)nc2c1 and give its measured pEC50. 8.52

Consider the molecule COc1ccc2nc(O[C@@H]3C[C@H]4C(=O)N[C@]5(C(=O)NS(=O)(=O)C6(C)CC6)C[C@H]5/C=C/CCCCC[C@H](NC(=O)OC(C)(C)C)C(=O)N4C3)c(C(F)(F)F)nc2c1 and give its measured pEC50. 8.33

Consider the molecule COc1ccc2nc(C)c(O[C@@H]3C[C@H]4C(=O)N[C@]5(C(=O)NS(=O)(=O)C6(C)CC6)C[C@H]5/C=C/CCCCC[C@H](NC(=O)OC5(C(F)(F)F)CCC5)C(=O)N4C3)nc2c1 and give its measured pEC50. 7.60

Consider the molecule COc1ccc2nc(O[C@@H]3C[C@H]4C(=O)N[C@]5(C(=O)NS(=O)(=O)C6(C)CC6)C[C@H]5/C=C/CCCCC[C@H](NC(=O)O[C@H](C)C5CC5)C(=O)N4C3)c(C(F)(F)F)nc2c1 and give its measured pEC50. 7.72

###

# Tested on: Hepatitis C virus
# protocol.description: Antiviral activity against HCV genotype 3a infected in human Huh7.5 cells incubated for 72 hrs by luciferase assay
# Format: functional, organism-based, Hepacivirus hominis
# applied.conditions: subtype 3a, Huh7.5, 72 h
measure.name: pEC50
Convention used: pEC50 is expressed as -log10 of the molar concentration.

Answered examples (6):
1) CC(C)(C)[C@@H]1NC(=O)O[C@@H]2CCC[C@H]2OC/C=C/C(F)(F)c2nc3ccccc3nc2O[C@@H]2C[C@@H](C(=O)N[C@]3(C(=O)NS(=O)(=O)C4(C)CC4)C[C@H]3C(F)F)N(C2)C1=O = 7.52
2) COc1ccc2nc(C)c(O[C@@H]3C[C@H]4C(=O)N[C@]5(C(=O)NS(=O)(=O)C6(C)CC6)C[C@H]5/C=C/CCCCC[C@H](NC(=O)OC(C)(C)C(F)(F)F)C(=O)N4C3)nc2c1 = 6.80
3) COc1ccc2nc(O[C@@H]3C[C@H]4C(=O)N[C@]5(C(=O)NS(=O)(=O)C6(C)CC6)C[C@H]5/C=C/CCCCC[C@H](NC(=O)OC5(C(F)(F)F)CCC5)C(=O)N4C3)c(C(F)(F)F)nc2c1 = 6.05
4) COc1ccc2nc(C)c(O[C@@H]3C[C@H]4C(=O)N[C@]5(C(=O)NS(=O)(=O)C6(C)CC6)C[C@H]5/C=C/CCCCC[C@H](NC(=O)OC(C)(C)C)C(=O)N4C3)nc2c1 = 6.52
5) COc1ccc2nc(C)c(O[C@@H]3C[C@H]4C(=O)N[C@]5(C(=O)NS(=O)(=O)C6(C)CC6)C[C@H]5/C=C/CCCCC[C@H](NC(=O)OC5(C(F)(F)F)CCC5)C(=O)N4C3)nc2c1 = 6.51
6) COc1ccc2nc(O[C@@H]3C[C@H]4C(=O)N[C@]5(C(=O)NS(=O)(=O)C6(C)CC6)C[C@H]5/C=C/CCCCC[C@H](NC(=O)OC(C)(C)C(F)(F)F)C(=O)N4C3)c(C(F)(F)F)nc2c1 = 6.48

Consider the compound COc1ccc2nc(C)c(O[C@@H]3C[C@H]4C(=O)N[C@]5(C(=O)NS(=O)(=O)C6(C)CC6)C[C@H]5/C=C/CCCCC[C@H](NC(=O)OC5C[C@@H]6C[C@@H]6C5)C(=O)N4C3)nc2c1 (some centres not stated) and give its measured pEC50. 6.05

###

Here, each record is paired with measured pEC50 data.
# Tested on: Hepatitis C virus
# protocol.description: Antiviral activity against HCV genotype 1b harboring D168A mutant infected in human Huh7 cells incubated for 96 hrs by luciferase assay
# Type: functional, organism-based, Hepacivirus hominis
# applied.conditions: subtype 1b, Huh-7, 96 h
Convention used: pEC50 is expressed as -log10 of the molar concentration.

Answered examples (3):
1. COc1ccc2nc(O[C@@H]3C[C@H]4C(=O)N[C@]5(C(=O)NS(=O)(=O)C6(C)CC6)C[C@H]5/C=C/CCCCC[C@H](NC(=O)O[C@H](C)C(F)(F)F)C(=O)N4C3)c(C(F)(F)F)nc2c1 = 8.14
2. COc1ccc2nc(C)c(O[C@@H]3C[C@H]4C(=O)N[C@]5(C(=O)NS(=O)(=O)C6(C)CC6)C[C@H]5/C=C/CCCCC[C@H](NC(=O)OC(C)(C)C)C(=O)N4C3)nc2c1 = 8.66
3. COc1ccc2nc(C)c(O[C@@H]3C[C@H]4C(=O)N[C@]5(C(=O)NS(=O)(=O)C6(C)CC6)C[C@H]5/C=C/CCCCC[C@H](NC(=O)OC5CCC5)C(=O)N4C3)nc2c1 = 8.57

Consider the compound COc1ccc2nc(O[C@@H]3C[C@H]4C(=O)N[C@]5(C(=O)NS(=O)(=O)C6(C)CC6)C[C@H]5/C=C/CCCCC[C@H](NC(=O)OCC5(C)CC5(F)F)C(=O)N4C3)c(C(F)(F)F)nc2c1 (some centres undefined) and give its measured pEC50. 8.07

###

# Tested on: Hepatitis C virus
# protocol.description: Antiviral activity against HCV genotype 1b harboring D168A mutant infected in human Huh7 cells incubated for 96 hrs by luciferase assay
# Assay type: functional, organism-based, Hepacivirus hominis
# applied.conditions: subtype 1b, Huh-7, 96 h
measure.name: pEC50
Convention used: pEC50 is expressed as -log10 of the molar concentration.

1) COc1ccc2nc(C)c(O[C@@H]3C[C@H]4C(=O)N[C@]5(C(=O)NS(=O)(=O)C6(C)CC6)C[C@H]5/C=C/CCCCC[C@H](NC(=O)OCC5(C)CC5)C(=O)N4C3)nc2c1 = 8.42

Consider the compound COc1ccc2nc(C)c(O[C@@H]3C[C@H]4C(=O)N[C@]5(C(=O)NS(=O)(=O)C6(C)CC6)C[C@H]5/C=C/CCCCC[C@H](NC(=O)OC5(C)CCCC5)C(=O)N4C3)nc2c1 and give its measured pEC50. 8.33

Consider the compound COc1ccc2nc(O[C@@H]3C[C@H]4C(=O)N[C@]5(C(=O)NS(=O)(=O)C6(C)CC6)C[C@H]5/C=C/CCCCC[C@H](NC(=O)OCC(C)C)C(=O)N4C3)c(C(F)(F)F)nc2c1 and give its measured pEC50. 7.82

Consider the compound COc1ccc2nc(C)c(O[C@@H]3C[C@H]4C(=O)N[C@]5(C(=O)NS(=O)(=O)C6(C)CC6)C[C@H]5/C=C/CCCCC[C@H](NC(=O)OC5(C)CCC5)C(=O)N4C3)nc2c1 and give its measured pEC50. 8.47

Entry source: ChEMBL document CHEMBL4828740
